# study_target: C-C chemokine receptor type 2 (Homo sapiens)
# assay_details: Inhibition of [125I]MCP-1 binding to the cloned C-C chemokine receptor type 2B expressed in CHO cells
# Type: cell-based
# pKi per entry
Remember, pKi is on a log scale: it is -log10 of the molar concentration.

Need pKi, item O=C(/C=C/c1ccc(Cl)c(Cl)c1)NCCCCCN1[C@@H]2CC[C@H]1CC(c1c[nH]c3ccc(O)cc13)C2 (stereo in doubt)
6.60

Repeat for the following molecule: O=C(/C=C/c1ccc(Cl)c(Cl)c1)NCCCCCN1[C@@H]2CC[C@H]1CC(c1c[nH]c3ccc(O)cc13)C2 (single isomer, unassigned)
6.20

Repeat for the following molecule: O=C(/C=C/c1ccc(Cl)c(Cl)c1)N[C@H]1CC[C@@H](CN2[C@@H]3CC[C@H]2C[C@H](c2c[nH]c4ccc(O)cc24)C3)CC1
7.40

Repeat for the following molecule: O=C(/C=C/c1ccc(Cl)c(Cl)c1)N[C@H]1CC[C@@H](CN2CCC(c3c[nH]c4ccc(O)cc34)CC2)CC1
7.10

----------
# study_target: D(2) dopamine receptor (Homo sapiens)
# assay_details: Binding affinity for Dopamine receptor D2 was determined
observable: Ki (nM)
Just the number in nM, nothing appended.

I'm curious: which Ki was measured for O=C(/C=C/c1ccc(Cl)c(Cl)c1)NCCCCCN1CCC(c2c[nH]c3ccc(O)cc23)CC1 tested on D(2) dopamine receptor (Homo sapiens)?
15.8

----------
# study_target: UniProt:P28222
# Sequence (P28222 whole entry): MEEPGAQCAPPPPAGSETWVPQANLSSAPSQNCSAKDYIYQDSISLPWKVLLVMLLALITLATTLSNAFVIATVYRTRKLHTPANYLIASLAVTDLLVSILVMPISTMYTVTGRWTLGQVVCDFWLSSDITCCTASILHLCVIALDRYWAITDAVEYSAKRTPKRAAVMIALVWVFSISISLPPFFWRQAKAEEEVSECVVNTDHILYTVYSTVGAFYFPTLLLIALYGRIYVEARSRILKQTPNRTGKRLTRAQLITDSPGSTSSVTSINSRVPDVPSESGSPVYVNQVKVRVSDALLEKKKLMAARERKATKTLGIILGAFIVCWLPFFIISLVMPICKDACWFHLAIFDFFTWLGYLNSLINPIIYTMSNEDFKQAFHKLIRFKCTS
observable: Ki (nM)
Just the number in nM, nothing appended.

O=C(/C=C/c1ccc(Cl)c(Cl)c1)NCCCCCN1CCC(c2c[nH]c3ccc(O)cc23)CC1 :: 12.6

// switching to the query compound
Need Ki, item O=C(/C=C/c1ccc(Cl)c(Cl)c1)N[C@H]1CC[C@@H](CN2[C@@H]3CC[C@H]2C[C@H](c2c[nH]c4ccc(O)cc24)C3)CC1
1000

----------
# study_target: 5-hydroxytryptamine receptor 1E (Homo sapiens, UniProt P28566)
# Sequence (P28566 whole entry): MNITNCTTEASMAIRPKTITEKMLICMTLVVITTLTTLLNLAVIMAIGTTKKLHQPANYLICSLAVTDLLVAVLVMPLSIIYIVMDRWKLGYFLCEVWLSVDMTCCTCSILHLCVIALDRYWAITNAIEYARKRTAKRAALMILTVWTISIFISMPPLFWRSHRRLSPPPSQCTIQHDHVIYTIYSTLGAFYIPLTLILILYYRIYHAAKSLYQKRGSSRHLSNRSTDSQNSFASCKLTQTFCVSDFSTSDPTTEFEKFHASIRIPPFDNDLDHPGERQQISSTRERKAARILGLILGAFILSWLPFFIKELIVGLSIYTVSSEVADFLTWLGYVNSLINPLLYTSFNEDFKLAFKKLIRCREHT
observable: Ki

Need Ki, item O=C(/C=C/c1ccc(Cl)c(Cl)c1)N[C@H]1CC[C@@H](CN2[C@@H]3CC[C@H]2C[C@H](c2c[nH]c4ccc(O)cc24)C3)CC1
> 6.31 µM

----------
# study_target: 5-hydroxytryptamine receptor 2A (Homo sapiens)
# Sequence (P28223 whole entry): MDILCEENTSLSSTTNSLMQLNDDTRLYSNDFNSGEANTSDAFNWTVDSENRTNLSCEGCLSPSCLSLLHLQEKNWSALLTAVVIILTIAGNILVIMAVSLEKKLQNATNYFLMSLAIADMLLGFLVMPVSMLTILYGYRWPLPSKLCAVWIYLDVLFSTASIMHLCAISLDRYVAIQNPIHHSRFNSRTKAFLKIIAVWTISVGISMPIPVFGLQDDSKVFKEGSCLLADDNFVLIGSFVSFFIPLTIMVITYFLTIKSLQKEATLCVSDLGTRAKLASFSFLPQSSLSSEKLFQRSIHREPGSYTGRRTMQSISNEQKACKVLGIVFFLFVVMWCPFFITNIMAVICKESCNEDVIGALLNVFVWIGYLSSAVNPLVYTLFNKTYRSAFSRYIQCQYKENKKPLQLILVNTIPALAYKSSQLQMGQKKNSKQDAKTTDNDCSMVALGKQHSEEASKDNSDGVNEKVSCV
observable: pKi
Remember, pKi is on a log scale: it is -log10 of the molar concentration.

Need pKi, item O=C(/C=C/c1ccc(Cl)c(Cl)c1)NCCCCCN1CCC(c2c[nH]c3ccc(O)cc23)CC1
7.70

----------
# pKi per entry
# study_target: C-C chemokine receptor type 2 (Homo sapiens, UniProt P41597)
# Sequence (P41597 whole entry): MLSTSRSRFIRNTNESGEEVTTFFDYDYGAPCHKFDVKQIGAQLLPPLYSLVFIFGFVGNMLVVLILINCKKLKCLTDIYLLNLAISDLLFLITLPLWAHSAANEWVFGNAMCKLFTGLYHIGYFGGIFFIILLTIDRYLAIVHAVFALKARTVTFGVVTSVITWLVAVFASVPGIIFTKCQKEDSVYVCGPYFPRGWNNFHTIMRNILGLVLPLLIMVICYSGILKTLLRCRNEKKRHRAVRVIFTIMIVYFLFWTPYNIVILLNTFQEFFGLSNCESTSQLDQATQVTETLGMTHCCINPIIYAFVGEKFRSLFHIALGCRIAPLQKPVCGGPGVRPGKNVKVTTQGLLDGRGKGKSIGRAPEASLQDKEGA
# assay_details: Inhibition of [125I]MCP-1 binding to the cloned C-C chemokine receptor type 2B expressed in CHO cells
# Format: cell-based
Remember, pKi is on a log scale: it is -log10 of the molar concentration.

O=C(/C=C/c1ccc(Cl)c(Cl)c1)N[C@H]1CC[C@@H](CN2CCC(c3c[nH]c4ccccc34)CC2)CC1 :: 6.90

Need pKi, item O=C(/C=C/c1ccc(Cl)c(Cl)c1)NCCCCCN1[C@@H]2CC[C@H]1CC(c1c[nH]c3ccc(O)cc13)C2 (stereo in doubt)
6.60

----------
# study_target: UniProt P08908
# Sequence (P08908 whole entry): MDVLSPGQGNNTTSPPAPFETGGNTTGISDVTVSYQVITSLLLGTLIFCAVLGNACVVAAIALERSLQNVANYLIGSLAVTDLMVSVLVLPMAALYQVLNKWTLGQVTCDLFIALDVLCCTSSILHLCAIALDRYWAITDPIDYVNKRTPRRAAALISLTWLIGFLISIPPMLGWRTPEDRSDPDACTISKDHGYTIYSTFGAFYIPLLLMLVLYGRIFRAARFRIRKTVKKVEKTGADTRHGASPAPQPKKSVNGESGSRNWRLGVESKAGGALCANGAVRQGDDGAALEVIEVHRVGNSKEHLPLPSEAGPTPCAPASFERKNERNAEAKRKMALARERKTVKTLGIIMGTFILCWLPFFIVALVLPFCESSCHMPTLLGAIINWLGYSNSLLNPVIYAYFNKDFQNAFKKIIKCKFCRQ
observable: pKi
Remember, pKi is on a log scale: it is -log10 of the molar concentration.

Need pKi, item O=C(/C=C/c1ccc(Cl)c(Cl)c1)N[C@H]1CC[C@@H](CN2[C@@H]3CC[C@H]2C[C@H](c2c[nH]c4ccc(O)cc24)C3)CC1
5.10

----------
# Ki per entry
# study_target: 5-hydroxytryptamine receptor 6 (Homo sapiens, UniProt P50406)
# Sequence (P50406 whole entry): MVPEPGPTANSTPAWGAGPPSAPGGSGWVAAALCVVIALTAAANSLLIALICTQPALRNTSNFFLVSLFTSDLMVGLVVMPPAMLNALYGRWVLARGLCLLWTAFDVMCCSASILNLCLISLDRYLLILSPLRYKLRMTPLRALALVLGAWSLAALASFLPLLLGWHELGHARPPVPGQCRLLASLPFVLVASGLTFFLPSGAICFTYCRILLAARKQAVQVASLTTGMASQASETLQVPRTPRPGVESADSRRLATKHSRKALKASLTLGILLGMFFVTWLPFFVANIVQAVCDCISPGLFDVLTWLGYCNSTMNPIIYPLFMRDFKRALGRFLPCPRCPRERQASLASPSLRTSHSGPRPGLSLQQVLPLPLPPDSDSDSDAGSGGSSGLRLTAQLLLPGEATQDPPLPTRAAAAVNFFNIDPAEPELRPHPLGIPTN
Just the number in nM, nothing appended.

O=C(/C=C/c1ccc(Cl)c(Cl)c1)NCCCCCN1CCC(c2c[nH]c3ccc(O)cc23)CC1 :: 79.4

// switching to the query compound
I'm curious: which Ki was measured for O=C(/C=C/c1ccc(Cl)c(Cl)c1)N[C@H]1CC[C@@H](CN2[C@@H]3CC[C@H]2C[C@H](c2c[nH]c4ccc(O)cc24)C3)CC1 tested on 5-hydroxytryptamine receptor 6 (Homo sapiens, UniProt P50406)?
2000

----------
# study_target: D(3) dopamine receptor (Homo sapiens, UniProt P35462)
# Sequence (P35462 whole entry): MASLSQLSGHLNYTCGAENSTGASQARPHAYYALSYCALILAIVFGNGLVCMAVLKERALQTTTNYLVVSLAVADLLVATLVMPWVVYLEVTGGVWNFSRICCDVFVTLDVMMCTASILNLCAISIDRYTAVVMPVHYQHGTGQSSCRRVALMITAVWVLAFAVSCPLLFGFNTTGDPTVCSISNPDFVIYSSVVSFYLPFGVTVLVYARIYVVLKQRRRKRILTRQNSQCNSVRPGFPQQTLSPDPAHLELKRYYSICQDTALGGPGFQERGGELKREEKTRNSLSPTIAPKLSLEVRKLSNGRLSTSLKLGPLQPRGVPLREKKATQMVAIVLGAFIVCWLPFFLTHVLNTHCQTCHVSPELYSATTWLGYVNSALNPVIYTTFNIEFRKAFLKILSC
# assay_details: Binding affinity for Dopamine receptor D3 was determined
observable: Ki (nM)
Just the number in nM, nothing appended.

I'm curious: which Ki was measured for O=C(/C=C/c1ccc(Cl)c(Cl)c1)NCCCCCN1CCC(c2c[nH]c3ccc(O)cc23)CC1 tested on D(3) dopamine receptor (Homo sapiens, UniProt P35462)?
7.94

----------
# study_target: D(3) dopamine receptor (Homo sapiens, UniProt P35462)
# assay_details: Binding affinity relative to indolopiperidine (compound 1) for Dopamine receptor D3 was determined
observable: pKi
Remember, pKi is on a log scale: it is -log10 of the molar concentration.

Need pKi, item O=C(/C=C/c1ccc(Cl)c(Cl)c1)N[C@H]1CC[C@@H](CN2[C@@H]3CC[C@H]2C[C@H](c2c[nH]c4ccc(O)cc24)C3)CC1
5.60

----------
# study_target: UniProt P41595
# Sequence (P41595 whole entry): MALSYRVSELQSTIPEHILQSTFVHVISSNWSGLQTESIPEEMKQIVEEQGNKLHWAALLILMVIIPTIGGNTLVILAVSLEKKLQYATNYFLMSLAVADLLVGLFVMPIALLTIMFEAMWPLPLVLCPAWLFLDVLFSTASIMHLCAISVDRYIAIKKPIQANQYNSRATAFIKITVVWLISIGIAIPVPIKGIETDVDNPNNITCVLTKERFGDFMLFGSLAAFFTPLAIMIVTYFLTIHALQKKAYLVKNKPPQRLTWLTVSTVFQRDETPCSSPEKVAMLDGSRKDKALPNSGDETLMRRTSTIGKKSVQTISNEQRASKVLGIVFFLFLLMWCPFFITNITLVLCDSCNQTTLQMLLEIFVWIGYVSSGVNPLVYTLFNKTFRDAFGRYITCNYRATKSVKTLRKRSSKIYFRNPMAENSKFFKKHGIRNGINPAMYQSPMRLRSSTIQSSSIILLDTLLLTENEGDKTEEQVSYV
observable: Ki (nM)
Just the number in nM, nothing appended.

Need Ki, item O=C(/C=C/c1ccc(Cl)c(Cl)c1)N[C@H]1CC[C@@H](CN2[C@@H]3CC[C@H]2C[C@H](c2c[nH]c4ccc(O)cc24)C3)CC1
501

----------
# study_target: D(2) dopamine receptor (Homo sapiens, UniProt P14416)
# Sequence (P14416 whole entry): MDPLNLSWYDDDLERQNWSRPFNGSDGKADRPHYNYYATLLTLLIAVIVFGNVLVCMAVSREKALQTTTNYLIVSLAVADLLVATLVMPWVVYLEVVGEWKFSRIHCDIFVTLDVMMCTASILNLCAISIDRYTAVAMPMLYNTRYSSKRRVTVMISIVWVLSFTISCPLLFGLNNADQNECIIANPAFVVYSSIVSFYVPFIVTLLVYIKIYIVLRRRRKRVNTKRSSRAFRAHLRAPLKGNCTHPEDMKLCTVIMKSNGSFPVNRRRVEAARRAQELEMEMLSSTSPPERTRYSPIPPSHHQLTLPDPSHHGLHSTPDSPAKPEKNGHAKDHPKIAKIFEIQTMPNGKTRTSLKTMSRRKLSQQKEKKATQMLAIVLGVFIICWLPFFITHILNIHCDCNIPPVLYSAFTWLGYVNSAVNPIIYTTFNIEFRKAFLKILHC
# assay_details: Binding affinity relative to indolopiperidine (compound 1) for Dopamine receptor D2 was determined
observable: Ki (nM)
Just the number in nM, nothing appended.

I'm curious: which Ki was measured for O=C(/C=C/c1ccc(Cl)c(Cl)c1)N[C@H]1CC[C@@H](CN2[C@@H]3CC[C@H]2C[C@H](c2c[nH]c4ccc(O)cc24)C3)CC1 tested on D(2) dopamine receptor (Homo sapiens, UniProt P14416)?
1260
